src = patent US20150274826A1

Target: T1, mouse CD47 (mouse, UniProt Q61735 19-303)
T1 construct: whole, on cells; also called CD47 on mouse RBCs; CD47 on 4T1 cells
T1 sequence (looked up): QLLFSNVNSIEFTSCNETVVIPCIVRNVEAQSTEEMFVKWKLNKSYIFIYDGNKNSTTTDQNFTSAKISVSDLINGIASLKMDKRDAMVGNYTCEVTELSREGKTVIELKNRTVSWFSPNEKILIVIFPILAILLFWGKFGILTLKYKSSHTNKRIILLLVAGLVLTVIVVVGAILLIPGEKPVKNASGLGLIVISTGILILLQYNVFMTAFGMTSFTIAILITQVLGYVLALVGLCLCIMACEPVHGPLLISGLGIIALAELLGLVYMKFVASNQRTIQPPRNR
Experiment: flow cytometry on RBCs, CHO supernatant 10 ng/ml
quantity-name: mean fluorescence relative to chimeric antibody

1. Clone 12 (pVxK7b-037-hum12-LC / pVxK7b-037-hum12-HC) (antibody, human IgG1, kappa, V domains shown) VH: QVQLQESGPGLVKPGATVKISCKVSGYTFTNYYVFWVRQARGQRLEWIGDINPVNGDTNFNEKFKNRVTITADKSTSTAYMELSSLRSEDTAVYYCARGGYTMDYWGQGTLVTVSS VL: DIVMTQTPLSLPVTPGEPASISCRSSQSLVHSNGNTYLHWYQQKPGKAPKLLIYKVSYRFSGVPDRFSGSGSGTDFTLKISRVEAEDVGVYYCSQNTHVPRTFGQGTKVEIKR	0.6 ratio
2. Clone 2 (pVxK7b-037-hum02-LC / pVxK7b-037-hum02-HC) (antibody, human IgG1, kappa, V domains shown) VH: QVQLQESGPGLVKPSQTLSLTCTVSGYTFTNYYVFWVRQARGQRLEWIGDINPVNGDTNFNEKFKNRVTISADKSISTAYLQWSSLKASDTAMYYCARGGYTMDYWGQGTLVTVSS VL: DVVMTQSPLSLPVTLGQPASISCRSSQSLVHSNGNTYLHWYQQKPGQAPRLLIYKVSYRFSGVPSRFSGSGSGTEFTLTISSLQPDDFATYYCSQNTHVPRTFGQGTKVEIKR	1.2 ratio
3. Clone 22 (pVxK7b-037-hum22-LC / pVxK7b-037-hum22-HC) (antibody, human IgG1, kappa, V domains shown) VH: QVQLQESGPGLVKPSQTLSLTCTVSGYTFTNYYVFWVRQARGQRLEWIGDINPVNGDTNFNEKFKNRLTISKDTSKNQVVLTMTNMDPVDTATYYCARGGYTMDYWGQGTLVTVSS VL: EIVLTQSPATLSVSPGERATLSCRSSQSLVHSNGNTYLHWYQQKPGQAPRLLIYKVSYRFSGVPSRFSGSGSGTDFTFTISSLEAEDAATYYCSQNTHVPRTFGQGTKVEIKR	1.2 ratio
